Below is a list of entries, each paired with its recorded growth at 10 µM value.
Tested on: SR
Experiment: Cytotoxicity against human SR cells assessed as cell growth at 10 uM after 48 hrs relative to control
Type: functional
Conditions: read-out: Activity
assay endpoint: growth at 10 µM

# smiles input, result value
measured = [
    ("COC(=O)[C@@H](NC(=O)N[C@@H](Cc1ccccc1)C(=O)N[C@H]1CCCCNC(=O)/C=C/[C@H](Cc2c[nH]c3ccccc23)NC1=O)C(C)C", "21.9%"),
    ("COC(=O)[C@@H](NC(=O)N[C@@H](Cc1ccccc1)C(=O)N[C@H]1CCCCNC(=O)/C=C/[C@H](Cc2ccccc2)NC1=O)C(C)C", "1.45%"),
    ("COC(=O)[C@@H](NC(=O)N[C@H](C(=O)N[C@H]1CCCCNC(=O)/C=C/[C@H](Cc2c[nH]c3ccccc23)NC1=O)C(C)C)C(C)C", "9.87%"),
    ("COC(=O)[C@@H](NC(=O)N[C@H](C(=O)N[C@H]1CCCCNC(=O)/C=C/[C@H](C(C)C)NC1=O)C(C)C)C(C)C", "7.05%"),
    ("COC(=O)[C@@H](NC(=O)N[C@@H](Cc1ccccc1)C(=O)N[C@H]1CCCCNC(=O)/C=C/[C@H](C(C)C)NC1=O)C(C)C", "8.54%"),
]
